OUTCOME_MEASURE: melting point (°C)

INSERT INTO measurements (molecule_smiles, outcome_measure, value) VALUES
  ('CC1(C)OC(=O)N(C(=O)/C=C/c2ccccc2)[C@@H]1c1ccccc1', 'melting point', 149),
  ('COc1cc(-c2cccc(Cl)c2)c2cc(Br)ccc2n1', 'melting point', 124);

###

OUTCOME_MEASURE: melting point

INSERT INTO measurements (compound, outcome_measure, value) VALUES
  ('CC(=C1SC(=O)NC1=O)c1ccc(S(=O)(=O)CCc2ccccc2)cc1', 'melting point', '201 to 202 °C'),
  ('Cc1ccc2c(c1)N(CC(=O)c1ccccc1C)C(=O)C(NC(=O)Nc1ccc(Cl)c(C(=O)O)c1)CN2C(=O)C(C)(C)C (stereo not given)', 'melting point', '178 to 180 °C'),
  ('ClCCCCCOc1ccc(C2=C(c3ccccc3)CCCc3cc(OC4CCCCO4)ccc32)cc1 (stereo not given)', 'melting point', '99 to 101 °C'),
  ('O=C(Nc1ccc(F)cc1)NC1CCN(S(=O)(=O)c2ccc(Cl)cc2)CC1', 'melting point', '160 to 162 °C'),
  ('CSCCN(c1ccc(Cl)cc1[N+](=O)[O-])S(=O)(=O)c1ccc(C)cc1', 'melting point', '94.5 to 95.5 °C'),
  ('COc1ccc(CS[C@@H]2C[C@@H](C(=O)N(C)OC)N(S(=O)(=O)c3ccc4ccccc4c3)C2)cc1', 'melting point', '101 to 102 °C'),
  ('CSc1ncc2c(Cl)cc(I)n2n1', 'melting point', '216 to 220 °C'),
  ('CCCOc1cc(S(C)(=O)=O)ccc1-c1ccc(C#N)c(=O)[nH]1', 'melting point', '241 to 242 °C'),
  ('COC(=O)c1c(C(N)=O)[nH]c(-c2ccccc2)c1N', 'melting point', '177 to 179 °C'),
  ('C=C(C(=O)c1cc(OC)c(OC)c(-c2cccs2)c1)c1ccc(C(=O)O)cc1', 'melting point', '159 to 160 °C'),
  ('CCOC(=O)Cn1c(-c2ccc(F)cc2)nc2cccnc21', 'melting point', '126 to 128 °C'),
  ('CCN1CCN(c2ccc([N+](=O)[O-])cc2OC)CC1', 'melting point', '84 to 85 °C'),
  ('O=C(Nc1ccc(Br)cc1)c1ccccc1NCc1ccncc1', 'melting point', '136 to 137 °C'),
  ('COC(=O)CC(=O)CS(=O)(=O)C(c1ccc(Cl)cc1)c1ccc(Cl)cc1', 'melting point', '76 to 78 °C'),
  ('CCOC(=O)C1(C2c3[nH]c4ccc(Cl)cc4c3CCN2C(=O)c2ccno2)CCC1 (stereo not given)', 'melting point', '166 to 167 °C'),
  ('CCS(=O)(=O)c1c(CS(=O)(=O)C2=NOC(C)(C)C2)c(C(F)(F)F)nn1-c1ccccc1', 'melting point', '158 to 160 °C'),
  ('Nc1cc(Cl)nc(SC/C=C/C(=O)N2CCCC2)n1', 'melting point', '178 to 180 °C'),
  ('O=C(Cc1ccc(Cl)cc1)OCCCOc1c(Cl)cc(OCC=C(Cl)Cl)cc1Cl', 'melting point', '62.2 °C'),
  ('CC(C)(C)NC(=O)C(=O)C(C)(C)C', 'melting point', '65 °C'),
  ('CCCCC(OC(C)=O)c1cccc(COc2cc([N+](=O)[O-])cc3cccnc23)c1 (stereo not given)', 'melting point', '72 to 74 °C');

###

OUTCOME_MEASURE: melting point

INSERT INTO results (compound, outcome_measure, value) VALUES
  ('Nc1nc2ccccc2c2c1nc1n2C(COCc2ccccc2)COC1 (stereo unspecified)', 'melting point', '185 to 186 °C'),
  ('Cc1cc(O)ccc1-c1ccc(C=O)c(Cl)c1', 'melting point', '125 to 127 °C'),
  ('O=C1CCC2=C(CCc3cccc(Br)c32)N1', 'melting point', '189 to 190 °C'),
  ('O=C1CSCc2cc(Br)ccc21', 'melting point', '81 °C'),
  ('CCOC(=O)c1ccc(NC(=O)[C@H](CO)NS(=O)(=O)c2ccc(Cl)cc2)cc1', 'melting point', '157 to 160 °C'),
  ('COc1ccc(N=Nc2ccc(O)c(C(N)=O)c2)cc1', 'melting point', '231 to 233 °C'),
  ('O=c1[nH]c(C2(F)CC2)nc2c1cnn2-c1ncc(C(F)(F)F)cc1Cl', 'melting point', '211 °C'),
  ('Cc1ncnn1-c1ccc(N)cc1', 'melting point', '145 °C'),
  ('CC(C)(C)OC(=O)N[C@H]1CCc2cc(-c3ccccc3)ccc2NC1=O', 'melting point', '198 to 200 °C'),
  ('Nc1nc2cccnc2c2c1nc(CCO)n2CC1(O)CCOCC1', 'melting point', '226 to 227 °C'),
  ('COc1cc2c(cc1F)C1(CO2)C(=O)N(CC2CCCCO2)c2ccccc21 (stereo unspecified)', 'melting point', '131 to 133 °C');

###

OUTCOME_MEASURE: melting point

INSERT INTO assay_data (compound, outcome_measure, value) VALUES
  ('CS(=O)(=O)c1ccc(C(=O)C2C(=O)N(C(N)=O)c3ccc(Cl)cc32)s1 (stereo not given)', 'melting point', '212 to 214 °C'),
  ('COC(=O)c1ccc(C(=O)O)cc1C', 'melting point', '134 to 136 °C'),
  ('O=C(O)c1cn(C2CC2)c2nc(-c3cc4c(s3)CCC/C4=N\O)c(F)cc2c1=O', 'melting point', '> 300 °C'),
  ('Clc1ccc(Nc2ccnc(-c3cccc(Cl)n3)n2)cc1', 'melting point', '174 to 176 °C'),
  ('CC(C)(C)c1ocnc1C=C(O)C(=O)N[C@@H](Cc1ccccc1)C(N)=O', 'melting point', '50 to 53 °C'),
  ('CCC(C)(Oc1ccc(OCc2cc(-c3ccc(OCc4ccccc4)cc3)no2)cc1)C(=O)O (stereo not given)', 'melting point', '132 to 134 °C'),
  ('CN(C)CCNC(=O)Cc1ccc(NC(=O)C2CCN(C(=O)OCc3ccccc3)CC2)cc1', 'melting point', '169 to 170 °C'),
  ('CC(=O)Nc1cccc(OCC(O)CNCCOc2ccc(C(N)=O)cc2)c1 (stereo not given)', 'melting point', '164 to 165 °C'),
  ('CCCCN(CCCC12CC3CC(CC(C3)C1)C2)C(=O)NCCCc1ccncc1', 'melting point', '79.8 to 80.4 °C'),
  ('CC(=O)N(C)c1ccc2sc3ccc(Br)cc3c(=O)c2c1', 'melting point', '240 to 241 °C'),
  ('O=C(Nc1ccc(F)cc1)NN1CC=C(c2ccccc2)CC1', 'melting point', '200 to 212 °C'),
  ('Cc1ccc(C23CCC(O)(CC2)CC3)cc1', 'melting point', '144 °C'),
  ('CSc1nccc(C)c1NC(=O)CCCCCCCCSc1nc2ccccc2s1', 'melting point', '88 to 90 °C'),
  ('CCOC(=O)CN(CC(=O)OCC)C(=O)C(=O)c1ccc(OCCCCCCCCCCCCOc2ccccc2)cc1', 'melting point', '55 to 56 °C'),
  ('CC(C)(C)OC(=O)N1CCC(O)(CS(=O)(=O)NC(=O)c2cc(C(F)(F)F)cc(C(F)(F)F)c2)CC1', 'melting point', '154 to 159 °C'),
  ('O=C(Oc1ccccc1)N1CCC2(CC1)SC(c1ccc(Cl)cc1)c1ccccc12 (stereo not given)', 'melting point', '211 to 212 °C'),
  ('COc1cc2c(cc1OC)CN(C(=O)Cc1ccc(-c3ccccc3)cc1)CC2', 'melting point', '109 to 111 °C'),
  ('CS(=O)c1n[nH]c2ccc(C(F)(F)F)cc12 (stereo not given)', 'melting point', '168 to 170 °C'),
  ('Nc1cc(Cl)cc(Cl)c1C(=O)NCc1ccccc1F', 'melting point', '154 to 158 °C'),
  ('C=Cn1cc(C(=O)O)c(=O)c2cc(F)c(O)nc21', 'melting point', '256 to 259 °C');

###

Catalogue of melting point readings, one per entry.
OUTCOME_MEASURE: melting point

INSERT INTO results (compound, value) VALUES
  ('CCN1C(=O)C(C)(C)C(=O)N(C)c2cc(CN(CCn3ccc4oc(C)cc4c3=O)C(C)c3cccnc3)ccc21 (stereo not given)', '128 to 132 °C'),
  ('CCOC(=O)Cn1c(=O)[nH]c(=O)c2ccc(Cl)cc21', '242 to 243 °C'),
  ('Cc1ccc(CSc2nc(N)nc3nc[nH]c23)cc1', '240 to 242 °C'),
  ('CCC(O)(C(=O)c1ccccc1)c1ccccc1 (stereo not given)', '62 to 68 °C'),
  ('CCCc1cc2c(=O)cc(C(=O)O)[nH]c2cc1OCCCOc1c(CCC)cc(C(C)=O)c(O)c1CCC', '128 to 131 °C'),
  ('Cc1ccc(C[C@@H](C(=O)O)[C@@H](O)c2ccc(F)cc2)cc1OC(F)(F)C(F)F (racemic)', '102 to 103 °C'),
  ('O=C(N[C@@H]1CC(=O)N(Cc2ccccc2)C1=O)OCc1ccccc1', '143 to 144 °C'),
  ('O=CCN1C(=O)c2ccccc2C1=O', '114 °C'),
  ('COc1cc2c(cc1Nc1ncc(Cl)c(Nc3ccccc3S(=O)(=O)C(C)C)n1)CCN(CC(=O)N1CCOCC1)CC2', '100 °C'),
  ('O=C1Cc2c(-c3ccccc3)ccc(Cl)c2N1', '234 to 236 °C');
